The values you see were collected from ChEMBL document CHEMBL1961873.

Molecular target: Protein kinase C beta type (Homo sapiens) (UniProt P05771);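 also: GSK PKIS screen, average inhibition of the PKC-beta2 splice variant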
Sequence (P05771 2-671 limits assumed): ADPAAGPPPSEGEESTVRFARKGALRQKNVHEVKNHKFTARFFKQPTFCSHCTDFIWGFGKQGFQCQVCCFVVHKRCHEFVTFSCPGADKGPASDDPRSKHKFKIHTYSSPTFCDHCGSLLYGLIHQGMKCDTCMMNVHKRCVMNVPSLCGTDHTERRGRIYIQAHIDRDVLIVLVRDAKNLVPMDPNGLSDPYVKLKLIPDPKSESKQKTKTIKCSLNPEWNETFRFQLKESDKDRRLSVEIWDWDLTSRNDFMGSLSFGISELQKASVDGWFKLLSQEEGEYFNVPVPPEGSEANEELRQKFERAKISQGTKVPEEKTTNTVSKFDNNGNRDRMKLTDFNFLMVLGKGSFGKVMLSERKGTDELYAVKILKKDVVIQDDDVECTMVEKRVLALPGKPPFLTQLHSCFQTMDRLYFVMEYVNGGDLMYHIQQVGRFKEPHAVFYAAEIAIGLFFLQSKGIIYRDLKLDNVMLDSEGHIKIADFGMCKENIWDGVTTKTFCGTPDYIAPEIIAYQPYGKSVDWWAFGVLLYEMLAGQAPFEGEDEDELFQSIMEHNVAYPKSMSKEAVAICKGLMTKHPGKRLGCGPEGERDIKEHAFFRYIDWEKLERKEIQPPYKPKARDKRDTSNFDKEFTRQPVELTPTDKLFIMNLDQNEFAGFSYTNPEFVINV
Conditions: at 1 µM
Description: GSK_PKIS: PKC-beta2 (splice variant) mean inhibition at 1 uM [Nanosyn]
# maps each entry to its inhibition
Answer in %, number only, no unit symbol.

Check out these entries, answers already filled in.
[
  {
    "mol": "Cn1c(-c2nonc2N)nc2cnccc21",
    "assayed target": "Protein kinase C beta type (Homo sapiens) (UniProt P05771)",
    "unit symbol": "%",
    "inhibition": 5.62
  },
  {
    "mol": "O=C(Nc1n[nH]c2nnc(-c3cccnc3)cc12)C1CC1",
    "assayed target": "Protein kinase C beta type (Homo sapiens) (UniProt P05771)",
    "unit symbol": "%",
    "inhibition": 3.21
  },
  {
    "mol": "CS(=O)(=O)CCNCc1ccc(-c2ccc3ncnc(Nc4ccc(OCc5cccc(C(F)(F)F)c5)cc4)c3c2)o1",
    "assayed target": "Protein kinase C beta type (Homo sapiens) (UniProt P05771)",
    "unit symbol": "%",
    "inhibition": 3.15
  },
  {
    "mol": "CN(c1ccc(NC(=O)NCCN2CCOCC2)cc1)c1ccnc(Nc2ccc(CS(C)(=O)=O)cc2)n1",
    "assayed target": "Protein kinase C beta type (Homo sapiens) (UniProt P05771)",
    "unit symbol": "%",
    "inhibition": -0.33
  }
]

Q: Given the compound Cc1cc(O)cc(C)c1/C=C/c1cncc(C(N)=O)c1 , what is its reported inhibition?
Ans: 1.05

Q: Given the compound OCCCNc1nccc(-c2c(-c3ccc(F)cc3)nn3cc(C(F)(F)F)ccc23)n1 , what is its reported inhibition?
Ans: 7.52

Q: Given the compound COC(=O)Nc1nc2ccc(Oc3ccc(NC(=O)Nc4cc(C(F)(F)F)ccc4F)cc3)cc2s1 , what is its reported inhibition?
Ans: -0.04
